Values were extracted from the RNAGym collection of RNA variant scans (doi:10.7554/elife.90254).

Provide the recorded self-cleavage for the entries that follow.
B1: LINE1-mini (parent)
chain: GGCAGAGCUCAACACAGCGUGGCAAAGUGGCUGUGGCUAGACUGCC

- Variants of: B1
- procedure_summary: self-cleavage, relative activity (ratio to wild type); higher = more cleavage; in vitro, sequencing; the parent is a self-cleaving ribozyme
Answer with a bare number; do not write a unit.

In: What self-cleavage value was documented for this variant, A25G U32C ?
Out: 0.06

In: Field entry: C37A C46G
Out: 0.06

In: Field entry: C42A C46A
Out: 0.2

In: Field entry: A16U G19U
Out: 0.2
